Selectivity over wildtype, Wildtype vs mutant H2073/H1975 (fold): recorded values
Tested on: H1975 (EGFR L858R/T790M mutant)
Test: Cell viability assay, H1975;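 note: NSCLC cells whose survival relies on EGFR L858R/T790M, exposed 72 h to serially diluted compound, ATP-based viability readout, with the H2073 line (wildtype EGFR dependent) as wildtype comparator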
Format: cell-based
Conditions: cellular potency ratio

// worked examples, Selectivity over wildtype, Wildtype vs mutant H2073/H1975 (fold) included
C=CC(=O)Nc1cc(Nc2ncc(Cl)c(-n3cc(CN4CCC4)c(C)n3)n2)c(OC)cc1N1CCOCC1 ... >200 fold
C=CC(=O)Nc1cc(Nc2ncc(C)c(-n3cc(CN4CC(O)C4)c(C)n3)n2)c(OC)cc1N1CCN(C)CC1 ... <20 fold
CC/C=C/C(=O)Nc1cc(Nc2nccc(-n3cc(CN(C)C)c(-c4ccccc4)n3)n2)c(OC)cc1N1CCOCC1 [Compound 155, reference compound] ... <20 fold

Given C=CC(=O)Nc1cc(Nc2ncc(Cl)c(-n3cc(CN4C[C@@H](O)[C@@H](O)C4)c(C)n3)n2)c(OC)cc1N1CCN(C)CC1 , state its recorded Selectivity over wildtype, Wildtype vs mutant H2073/H1975 (fold).
<20 fold

###

Target: SYK (Homo sapiens);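 note: purified full-length human SYK pre-incubated 30 min with compound, then ULight-TK peptide phosphorylation for 1 h, detected with Europium-labeled antibody in Lance buffer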
Below, each of the compounds is paired with its reported IC50 value.

C=CC(=O)Nc1cc(Nc2ncc(Cl)c(-n3cc(CN(C)C)cn3)n2)c(OC)cc1N1CCOCC1 ... 201 to 1000 nM
C=CC(=O)Nc1cc(Nc2ncc(C)c(-n3cc(CN4CC[C@@H](O)C4)c(C)n3)n2)c(OC)cc1N1CCOCC1 ... > 1000 nM
C=CC(=O)Nc1cc(Nc2ncc(C)c(-n3cc(CN(C)C)c(C(C)C)n3)n2)c(OC)cc1N1CCOCC1 ... 20 to 200 nM
Cc1cc(C)cc(Nc2nccc(-n3cc(CN4CC(O)C4)c(C)n3)n2)c1 [Compound 147, reference compound] ... 20 to 200 nM
C=CC(=O)Nc1cc(Nc2nccc(-n3cc(CN4CC[C@@H](N(C)C)C4)cn3)n2)c(OC)cc1N1CCOCC1 ... > 1000 nM

Look at this compound and give its reported IC50. C=CC(=O)Nc1cc(Nc2nccc(-n3cc(CN4CCC4)c(C(C)C)n3)n2)c(OC)cc1N1CCOCC1
201 to 1000 nM

Could you share which IC50 value was measured for COc1cc(N2CCOCC2)c(N)cc1Nc1nccc(-n2cc(CN(C)C)c(-c3ccccc3)n2)n1 [Compound 153, reference compound] ?
> 1000 nM

Which IC50 value belongs to C=CC(=O)Nc1cc(Nc2nccc(-n3cc(CN(C)C)c(-c4ccccc4)n3)n2)c(OC)cc1N(C)CCOC ?
> 1000 nM

# lookup: IC50 of C=CC(=O)Nc1cc(Nc2ncc(C)c(-n3cc(CN4CCC4)cn3)n2)c(OC)cc1N(C)CCN(C)C
> 1000 nM

###

Target: EGFR mutant L858R (Homo sapiens, UniProt P00533, L858R)
Construct: truncated human JAK3, EGFR mutants such as del E746-A750; purchased Carna Biosciences
Sequence (P00533 669-1210 L858R limits assumed): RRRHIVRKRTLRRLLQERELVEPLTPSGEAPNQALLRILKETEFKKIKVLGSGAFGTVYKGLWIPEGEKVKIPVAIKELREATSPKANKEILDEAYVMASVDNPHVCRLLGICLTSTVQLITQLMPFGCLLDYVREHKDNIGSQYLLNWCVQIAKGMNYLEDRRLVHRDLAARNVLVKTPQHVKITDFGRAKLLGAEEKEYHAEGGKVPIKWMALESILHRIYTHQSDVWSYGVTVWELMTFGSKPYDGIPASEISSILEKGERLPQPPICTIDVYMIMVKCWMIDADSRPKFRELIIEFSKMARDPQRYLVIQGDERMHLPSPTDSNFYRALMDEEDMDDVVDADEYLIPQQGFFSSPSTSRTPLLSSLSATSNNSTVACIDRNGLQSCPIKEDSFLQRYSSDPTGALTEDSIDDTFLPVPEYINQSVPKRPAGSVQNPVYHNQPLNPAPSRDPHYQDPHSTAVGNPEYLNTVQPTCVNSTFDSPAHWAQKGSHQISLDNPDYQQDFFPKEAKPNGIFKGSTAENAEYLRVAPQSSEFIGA
Assay: Kinase inhibition assay, EGFR L858R
Type: biochemical
Details: read-out: EGFR mutants L858R
pIC50: −log10 of the molar value.
endpoint.name: pIC50

Query (compound): C=CC(=O)Nc1cc(Nc2ncc(Cl)c(-n3cc(CN4CC(O)C4)c(C)n3)n2)c(OC)cc1N1CCOCC1 ; field requested: pIC50
> 7.70

###

Molecular target: EGFR mutant L858R (Homo sapiens, UniProt P00533, L858R)
Construct: truncated human JAK3, EGFR mutants such as del E746-A750; purchased Carna Biosciences
Assay: Kinase inhibition assay, EGFR L858R
Assay type: biochemical
Conditions: read-out: EGFR mutants L858R
pIC50: −log10 of the molar value.
Here, each record is paired with measured pIC50 data.

A selection of reference data follows.
C=CC(=O)Nc1cc(Nc2ncc(Cl)c(-n3cc(CN4CCC4)c(C)n3)n2)c(OC)cc1N1CCOCC1 ... 6.70 to 7.70
C=CC(=O)Nc1cc(Nc2nccc(-n3cc(CO)c(C)n3)n2)c(OC)cc1N1CCOCC1 ... 6.70 to 7.70

What value of measured pIC50 is listed for C=CC(=O)Nc1cc(Nc2nccc(-n3cc(CN(C)C)c(C)n3)n2)c(OC)cc1N1CCN(C)CC1 ?
> 7.70

For the compound C=CC(=O)Nc1cc(Nc2nccc(-n3cc(CN4CC(O)C4)c(C)n3)n2)c(OC)cc1N1CCOCC1 , what pIC50 is on record?
> 7.70

###

Entries and their measured IC50 follow.
Target: EGFR mutant L858R (Homo sapiens, UniProt P00533, L858R)
Construct: truncated human JAK3, EGFR mutants such as del E746-A750; purchased Carna Biosciences
Assay: Kinase inhibition assay, EGFR L858R;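 note: truncated human EGFR L858R kinase with compound preincubation, ULight-PolyGT peptide phosphorylation read by Europium-antibody Lance detection, IC50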
Type: biochemical
Details: read-out: EGFR mutants L858R

Please review the following examples before continuing.
COc1cc(N2CCOCC2)c(N)cc1Nc1nccc(-n2cc(CN(C)C)c(-c3ccccc3)n2)n1 [Compound 153, reference compound] ... > 1000 nM
C=CC(=O)Nc1cc(Nc2nccc(-n3cc(CN4CCC4)c(C(C)C)n3)n2)c(OC)cc1N(C)C1COC1 [Compound 115] ... < 20 nM
C=CC(=O)Nc1cc(Nc2nccc(-n3cc(CN4CCC4)c(C4CC4)n3)n2)c(OC)cc1N1CCN(C(C)=O)CC1 [Compound 138] ... < 20 nM
C=CC(=O)Nc1cc(Nc2ncc(C)c(-n3cc(CN4CCC4)cn3)n2)c(OC)cc1C1=CCN(C)CC1 [Compound 64] ... 20 to 200 nM
C=CC(=O)Nc1cc(Nc2ncc(C)c(-n3cc(CN4C[C@H](O)[C@H](OC)C4)cn3)n2)c(OC)cc1N1CCOCC1 [Compound 21] ... 20 to 200 nM

Turning now to a further molecule:
Given C=CC(=O)Nc1cc(Nc2nccc(-n3cc(CN(C)C)c(C)n3)n2)c(OC)cc1N1CCN(CCF)CC1 [Compound 79] , state its recorded IC50.
< 20 nM

###

Target: EGFR mutant T790M (Homo sapiens, UniProt P00533, T790M)
Construct: truncated human JAK3, EGFR mutants such as del E746-A750; purchased Carna Biosciences
Sequence (P00533 669-1210 T790M limits assumed): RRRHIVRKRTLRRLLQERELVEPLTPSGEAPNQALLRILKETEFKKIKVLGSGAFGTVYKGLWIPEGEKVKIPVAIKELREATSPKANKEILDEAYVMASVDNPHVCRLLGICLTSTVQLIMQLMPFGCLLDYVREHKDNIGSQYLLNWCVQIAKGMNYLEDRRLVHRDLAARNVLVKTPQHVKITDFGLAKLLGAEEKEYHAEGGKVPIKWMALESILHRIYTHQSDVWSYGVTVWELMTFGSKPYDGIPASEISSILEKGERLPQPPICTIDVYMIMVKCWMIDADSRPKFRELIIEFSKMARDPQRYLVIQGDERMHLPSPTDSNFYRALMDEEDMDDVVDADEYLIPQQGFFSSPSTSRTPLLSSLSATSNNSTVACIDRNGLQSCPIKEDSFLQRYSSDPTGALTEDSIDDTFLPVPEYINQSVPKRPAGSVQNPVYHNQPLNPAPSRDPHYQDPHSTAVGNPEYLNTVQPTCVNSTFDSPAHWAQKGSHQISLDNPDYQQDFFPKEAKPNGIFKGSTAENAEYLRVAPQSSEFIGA
Test: Kinase inhibition assay, EGFR mutant T790M;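 note: truncated human EGFR mutant enzyme preincubated two hours with compound, then ATP plus ULight-PolyGT peptide for one hour, Europium-labeled antibody LANCE detection, IC50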
Settings: biochemical potency
Each entry below carries its recorded IC50.

C=CC(=O)Nc1cc(Nc2nccc(-n3cc(CN4CCC4)c(-c4ccccc4)n3)n2)c(OC)cc1N(C)C1COC1 ... 20 to 200 nM
C=CC(=O)Nc1cc(Nc2ncc(F)c(-n3cc(CN4CCC4)c(C)n3)n2)c(OC)cc1N1CCOCC1 ... < 20 nM
C=CC(=O)Nc1cc(Nc2ncc(C)c(-n3cc(CN(C)C)cn3)n2)c(OC)cc1N1CCOCC1 ... < 20 nM
C=CC(=O)Nc1cc(Nc2ncc(C)c(-n3cc(CN4CC(O)C4)c(C)n3)n2)c(OC)cc1N1CCOCC1 ... < 20 nM
C=CC(=O)Nc1cc(Nc2nccc(-n3cc(CN4CCC4)cn3)n2)c(OC)cc1N(C)C ... < 20 nM
C=CC(=O)Nc1cc(Nc2nccc(-n3cc(CN(C)C)c(C(C)C)n3)n2)c(OC)cc1N(C)C1COC1 ... < 20 nM

If you can, please state the reported IC50 value of C=CC(=O)Nc1cc(Nc2ncc(C)c(-n3cc(CN4C[C@@H](O)[C@@H](O)C4)c(C)n3)n2)c(OC)cc1N1CCOCC1 .
< 20 nM

Find the recorded IC50 belonging to C=CC(=O)Nc1cc(Nc2ncc(C)c(-n3cc(C)c(CN4CC(O)C4)c3)n2)c(OC)cc1N1CCOCC1 and report it.
< 20 nM

Item under review: C=CC(=O)Nc1cc(Nc2ncc(C)c(-n3cc(CN4CCC4)c(C(C)C)n3)n2)c(OC)cc1N1CCOCC1 . Reported IC50?
< 20 nM

###

Target: EGFR mutant L858R/T790M (Homo sapiens, UniProt P00533, L858R/T790M)
Construct: truncated human JAK3, EGFR mutants such as del E746-A750; purchased Carna Biosciences
Sequence (P00533 669-1210 T790M/L858R limits assumed): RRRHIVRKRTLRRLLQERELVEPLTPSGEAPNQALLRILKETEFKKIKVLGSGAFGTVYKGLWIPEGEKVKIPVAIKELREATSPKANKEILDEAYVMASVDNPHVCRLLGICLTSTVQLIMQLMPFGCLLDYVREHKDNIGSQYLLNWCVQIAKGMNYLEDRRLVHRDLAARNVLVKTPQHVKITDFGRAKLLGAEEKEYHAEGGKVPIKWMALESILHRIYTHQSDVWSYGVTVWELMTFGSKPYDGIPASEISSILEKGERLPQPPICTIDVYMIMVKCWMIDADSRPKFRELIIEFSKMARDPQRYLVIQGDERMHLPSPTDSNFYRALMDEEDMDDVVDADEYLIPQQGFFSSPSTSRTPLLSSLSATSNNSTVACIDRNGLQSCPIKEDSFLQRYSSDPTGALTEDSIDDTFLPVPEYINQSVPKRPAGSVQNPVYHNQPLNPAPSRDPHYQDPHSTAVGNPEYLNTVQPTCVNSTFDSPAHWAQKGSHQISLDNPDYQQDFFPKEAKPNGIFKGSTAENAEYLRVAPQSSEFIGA
Experiment: Kinase inhibition assay, EGFR L858R/T790M;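 note: truncated human enzyme preincubated two hours with compound, then one hour with one millimolar ATP and ULight-PolyGT peptide, Europium-labeled antibody detection, IC50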
Assay type: biochemical
Settings: read-out: EGFR mutants L858R/T790M
pIC50: −log10 of the molar value.
endpoint.name: pIC50

Some entries whose results are on file:
C=CC(=O)Nc1cc(Nc2ncc(Cl)c(-n3cc(CN4C[C@H](O)[C@H](OC)C4)c(C)n3)n2)c(OC)cc1N1CCOCC1 ... > 7.70
C=CC(=O)Nc1cc(Nc2ncc(C)c(-n3cc(CN4CCC4)cn3)n2)c(OC(C)C)cc1N1CCOCC1 ... 6.70 to 7.70
CCC(=O)Nc1cc(Nc2nccc(-n3cc(CN(C)C)c(-c4ccccc4)n3)n2)c(OC)cc1N1CCOCC1 [Compound 157, reference compound] ... < 6.00

// moving on: another record for pIC50
Given the entry C=CC(=O)Nc1cc(Nc2ncc(C)c(-n3cc(CN4CCC4)cn3)n2)c(OC)cc1N(C)CCN(C)C , report its measured pIC50.
> 7.70
